target: hCA XII (Homo sapiens, UniProt O43570); test: Carbonic anhydrase inhibition assay, hCA XII; format: biochemical
Sequence (O43570 25-354): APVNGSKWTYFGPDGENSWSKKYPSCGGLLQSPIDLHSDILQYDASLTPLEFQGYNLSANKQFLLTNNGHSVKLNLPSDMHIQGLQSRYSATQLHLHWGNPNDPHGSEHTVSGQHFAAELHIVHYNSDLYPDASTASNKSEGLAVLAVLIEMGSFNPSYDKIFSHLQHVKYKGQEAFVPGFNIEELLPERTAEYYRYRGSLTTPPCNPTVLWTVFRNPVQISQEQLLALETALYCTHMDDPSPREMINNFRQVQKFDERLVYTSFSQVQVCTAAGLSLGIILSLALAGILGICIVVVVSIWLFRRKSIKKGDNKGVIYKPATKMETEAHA

{"columns": ["compound", "Ki [nM]"],
 "data": [
  ["Cn1c(-c2ccc(-c3ccccc3)cc2)csc1=Nc1ccc(S(N)(=O)=O)cc1 [EMAC8002i]", 9.5]
]}

---

biological target: hCA IX (Homo sapiens, UniProt Q16790); test: Carbonic anhydrase inhibition assay, hCA IX; type: biochemical

{"columns": ["compound", "measured_on", "Ki (nM)"],
 "data": [
  ["Cn1c(-c2ccc(-c3ccccc3)cc2)csc1=Nc1ccc(S(N)(=O)=O)cc1 [EMAC8002i]", "hCA IX (Homo sapiens, UniProt Q16790)", 1390]
]}

---

List of melting point values.
result_type: melting point

{"columns": ["molecule", "result_type", "measurement"],
 "data": [
  ["Cn1c(-c2ccc([N+](=O)[O-])cc2)cs/c1=N\\c1ccc(S(N)(=O)=O)cc1 [EMAC8002h]", "melting point", "244 to 245 °C"],
  ["Cn1c(-c2ccc(-c3ccccc3)cc2)csc1=Nc1ccc(S(N)(=O)=O)cc1 [EMAC8002i]", "melting point", "254 to 255 °C"],
  ["Cc1ccc(-c2cs/c(=N\\c3ccc(S(N)(=O)=O)cc3)n2C)cc1 [EMAC8002j]", "melting point", "252 to 254 °C"],
  ["Cn1c(-c2ccccc2)cs/c1=N\\c1ccc(S(N)(=O)=O)cc1 [EMAC8002m]", "melting point", "252 to 253 °C"],
  ["Cn1c(-c2ccc(F)cc2F)cs/c1=N\\c1ccc(S(N)(=O)=O)cc1 [EMAC8002g]", "melting point", "239 to 240 °C"],
  ["Cn1c(-c2ccc(Cl)cc2)cs/c1=N\\c1ccc(S(N)(=O)=O)cc1 [EMAC8002b]", "melting point", "241 to 242 °C"],
  ["COc1ccc(-c2cs/c(=N\\c3ccc(S(N)(=O)=O)cc3)n2C)cc1 [EMAC8002k]", "melting point", "243 to 244 °C"],
  ["Cn1c(-c2ccc(Br)cc2)cs/c1=N\\c1ccc(S(N)(=O)=O)cc1 [EMAC8002a]", "melting point", "256 to 259 °C"],
  ["Cn1c(-c2ccc(C#N)cc2)cs/c1=N\\c1ccc(S(N)(=O)=O)cc1 [EMAC8002f]", "melting point", "237 to 238 °C"],
  ["Cn1c(-c2cccc([N+](=O)[O-])c2)cs/c1=N\\c1ccc(S(N)(=O)=O)cc1 [EMAC8002d]", "melting point", "235 to 236 °C"],
  ["Cn1c(-c2ccc(Cl)cc2Cl)cs/c1=N\\c1ccc(S(N)(=O)=O)cc1 [EMAC8002e]", "melting point", "256 to 257 °C"],
  ["Cn1c(-c2ccc(F)cc2)cs/c1=N\\c1ccc(S(N)(=O)=O)cc1 [EMAC8002c]", "melting point", "230 to 233 °C"]
]}
